The measurements presented in this section are drawn from paper PMC4869123.

- target.system: murine IL-17A (Mus musculus)
- Construct: host or cells: added to MLE-12 mouse epithelial cells (ATCC CRL2110)
- Sequence (Q62386 26-158): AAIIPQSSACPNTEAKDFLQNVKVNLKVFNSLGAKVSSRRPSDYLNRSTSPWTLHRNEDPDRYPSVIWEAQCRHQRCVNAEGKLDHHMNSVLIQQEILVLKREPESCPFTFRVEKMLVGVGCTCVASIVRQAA
- assay.remarks: Murine functional cell assay, MLE-12 mouse epithelial cells, KC production
- Format: cell-based

substance	IC50
Ac-IHVTIPADLWDWINK-NH2 [Compound 30]	> 1000 nM
